assay_method_text: Oral bioavailability in CD(SD) rat at 3 mg/kg measured upto 25 hrs
Assay type: ADME, organism-based
test_context: in vivo
metric: bioavailability
I'd appreciate it if you wrote the number followed by its unit.

Request: Recorded bioavailability of "Cc1ccc([C@@H](NC(=O)[C@@H](F)c2ccc3c(c2)CCCC3)[C@@H](C)C(=O)O)cc1" , please.
Result: 136%

* * *

assay_method_text: Half life in CD(SD) rat at 1 mg/kg, iv measured upto 25 hrs
Type: ADME, organism-based
test_context: in vivo
metric: half-life (h)
One number for each entry, in h.

Request: I would be grateful if you could share the reported half-life for "Cc1ccc([C@@H](NC(=O)[C@@H](F)c2ccc3c(c2)CCCC3)[C@@H](C)C(=O)O)cc1" .
Result: 4.5
